- Protocol notes: Inhibition of NLRP3 inflammasome in mouse J774.A1 cells assessed as inhibition of IL-1 beta secretion
- Assay type: cell-based
Experimental readout: pIC50
Expect pIC50 as a plain number equal to -log10 of the molar concentration.

Problem: Consider the compound COc1ccc(Cl)cc1C(=O)NCCc1ccc(S(=O)(=O)NO)cc1 and give its measured pIC50.
Result: 5.07

---

- Protocol notes: Oral bioavailability in human
- Type: ADME, organism-based
- Run parameters: in vivo
Experimental readout: bioavailability (%)
State just the number; it will be interpreted in %.

Problem: Consider the compound CC(C)C[C@H](NC(=O)[C@H](Cc1ccccc1)NC(=O)c1c(F)cccc1F)B(O)O and give its measured bioavailability.
Result: 48.1
